Reference for the values: ChEMBL document CHEMBL5108036

# ASSAY_TEXT: Selectivity index, ratio HC50 for hemolytic activity in human RBC to MIC for antibacterial activity against Bacillus subtilis 168
# Format: toxicity
# ASSAY_CONTEXT: human red blood cells (erythrocytes)
Tick Satisfied if selectivity ratio is 90 or greater. Tick Not satisfied if selectivity ratio is less than 90.

# bool: selectivity ratio of CC(C)(C)c1ccc(CC2(Cc3cc(Br)cc(Br)c3)C(=O)N(CCCNC(=N)N)C(=O)N(CCCNC(=N)N)C2=O)cc1.O=C(O)C(F)(F)F.O=C(O)C(F)(F)F (configuration not stated) >= 90 Satisfied

Please tell me: is the molecule N=C(N)NCCCN1C(=O)N(CCCNC(=N)N)C(=O)C(Cc2ccc3cc(Br)ccc3n2)(Cc2ccc3cc(Br)ccc3n2)C1=O.O=C(O)C(F)(F)F.O=C(O)C(F)(F)F at or over 90 in terms of selectivity ratio? Satisfied

Kindly determine if selectivity ratio recorded for N=C(N)NCCCN1C(=O)N(CCCNC(=N)N)C(=O)C(Cc2cc(Br)cc(Br)c2)(Cc2cc(Br)cc(Br)c2)C1=O.O=C(O)C(F)(F)F.O=C(O)C(F)(F)F is above or exactly 90. Satisfied

Tell me whether selectivity ratio is at least 90 here: NCCCN1C(=O)N(CCCN)C(=O)C(Cc2cc(C(F)(F)F)cc(C(F)(F)F)c2)(Cc2cc(C(F)(F)F)cc(C(F)(F)F)c2)C1=O.O=C(O)C(F)(F)F.O=C(O)C(F)(F)F Not satisfied

Record O=C([O-])C(F)(F)F.O=C([O-])C(F)(F)F.O=C1N(CCCC[n+]2ccccc2)C(=O)C(Cc2cc(Br)cc(Br)c2)(Cc2cc(Br)cc(Br)c2)C(=O)N1CCCC[n+]1ccccc1 ; criterion: selectivity ratio no lower than 90. Met? Satisfied

Item N=C(N)NCCCN1C(=O)N(CCCNC(=N)N)C(=O)C(Cc2cc(C(F)(F)F)cc(C(F)(F)F)c2)(Cc2cc(C(F)(F)F)cc(C(F)(F)F)c2)C1=O.O=C(O)C(F)(F)F.O=C(O)C(F)(F)F with selectivity ratio of 90 or above? Satisfied

Please tell me: is the molecule N=C(N)NCCCCN1C(=O)N(CCCCNC(=N)N)C(=O)C(Cc2cc(Br)cc(Br)c2)(Cc2cc(Br)cc(Br)c2)C1=O.O=C(O)C(F)(F)F.O=C(O)C(F)(F)F at or over 90 in terms of selectivity ratio? Not satisfied
